- MEASURED ON: Voltage-gated inwardly rectifying potassium channel KCNH2 (Homo sapiens) (UniProt Q12809)
- Sequence (Q12809 whole entry, looked up): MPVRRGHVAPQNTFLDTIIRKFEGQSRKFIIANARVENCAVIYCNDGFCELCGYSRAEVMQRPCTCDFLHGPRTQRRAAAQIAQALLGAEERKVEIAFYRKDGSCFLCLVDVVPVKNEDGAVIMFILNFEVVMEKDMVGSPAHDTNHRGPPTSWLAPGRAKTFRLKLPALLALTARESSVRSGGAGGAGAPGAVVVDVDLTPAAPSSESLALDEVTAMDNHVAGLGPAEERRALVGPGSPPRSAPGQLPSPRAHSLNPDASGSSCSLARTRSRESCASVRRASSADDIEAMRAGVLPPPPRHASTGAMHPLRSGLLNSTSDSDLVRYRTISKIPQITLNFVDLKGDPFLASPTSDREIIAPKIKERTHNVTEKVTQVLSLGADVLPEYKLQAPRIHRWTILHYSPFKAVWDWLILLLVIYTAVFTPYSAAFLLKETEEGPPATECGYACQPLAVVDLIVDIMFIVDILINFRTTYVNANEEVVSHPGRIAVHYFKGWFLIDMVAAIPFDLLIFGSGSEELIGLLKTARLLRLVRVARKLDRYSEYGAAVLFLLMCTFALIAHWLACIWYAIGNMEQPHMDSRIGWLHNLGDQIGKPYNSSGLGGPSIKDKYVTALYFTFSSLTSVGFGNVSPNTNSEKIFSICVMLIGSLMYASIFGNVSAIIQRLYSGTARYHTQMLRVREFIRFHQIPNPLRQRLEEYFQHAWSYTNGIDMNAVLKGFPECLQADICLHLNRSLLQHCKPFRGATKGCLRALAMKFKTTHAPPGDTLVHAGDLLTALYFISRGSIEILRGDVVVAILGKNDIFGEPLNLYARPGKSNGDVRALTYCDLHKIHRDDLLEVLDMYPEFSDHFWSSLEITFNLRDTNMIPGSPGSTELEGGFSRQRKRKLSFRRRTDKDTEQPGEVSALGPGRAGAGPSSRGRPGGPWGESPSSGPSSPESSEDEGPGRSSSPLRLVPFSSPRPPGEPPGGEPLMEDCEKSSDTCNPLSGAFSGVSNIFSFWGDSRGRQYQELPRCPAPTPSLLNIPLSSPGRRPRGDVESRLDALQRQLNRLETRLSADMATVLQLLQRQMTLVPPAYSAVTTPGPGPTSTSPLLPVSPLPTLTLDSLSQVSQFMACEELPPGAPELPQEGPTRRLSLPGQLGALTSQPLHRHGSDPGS
- MEASUREMENT NOTES: Human Ether-a-go-go-Related Gene (hERG) channel small molecule antagonists: fluorescence cell-based qHTS assay (AID 1671200); note: nearly all actives have a fitted effect of over 50% in size
- CONDITION PARAMETERS: hERG-U2OS cells, FluxOR thallium flux fluorescence; series mostly up to 76.8 µM
Records with an inconclusive call do not appear. Active and inactive are the calls of the source. Calls come from the whole dose curve; as a rule, active = well fitted inhibition curve with a large enough effect in the repeat runs; inconclusive = weak or mixed curves; inactive = flat fitted curve, though single readings scatter.
Respond with a class label; see true (active), false (inactive)

Solved cases below.
COMPOUND | MEASURED ON | CATEGORY
Cc1ccc2nc(-c3ccc(N)cc3)sc2c1S(=O)(=O)O | Voltage-gated inwardly rectifying potassium channel KCNH2 (Homo sapiens) (UniProt Q12809) | false
CCCCCN=C(N)N/N=C/c1c[nH]c2ccc(OC)cc12 | Voltage-gated inwardly rectifying potassium channel KCNH2 (Homo sapiens) (UniProt Q12809) | true
CC(C)(C)c1ccc(OC2CCCCC2O)cc1 (stereo not given) | Voltage-gated inwardly rectifying potassium channel KCNH2 (Homo sapiens) (UniProt Q12809) | false
Oc1ccc2c(c1)CCC2 | Voltage-gated inwardly rectifying potassium channel KCNH2 (Homo sapiens) (UniProt Q12809) | false
CCCCCc1ccc(O)cc1 | Voltage-gated inwardly rectifying potassium channel KCNH2 (Homo sapiens) (UniProt Q12809) | false
Cc1ccc2sc3cccc(C)c3c2c1 | Voltage-gated inwardly rectifying potassium channel KCNH2 (Homo sapiens) (UniProt Q12809) | false
Clc1ccc2c(Cl)ccnc2c1 | Voltage-gated inwardly rectifying potassium channel KCNH2 (Homo sapiens) (UniProt Q12809) | false
O=C1CCC(=O)N1 | Voltage-gated inwardly rectifying potassium channel KCNH2 (Homo sapiens) (UniProt Q12809) | false

Lookup: What classification did `ClC(c1ccccc1)(c1ccccc1)c1ccccc1` end up with in this test?
Found: false

====

- MEASUREMENT NOTES: qHTS assay to test for compound auto fluorescence at 590 nm (red) in HEK293 cell free culture (AID 720683)
- CONDITION PARAMETERS: cell-free medium autofluorescence, Ex540/Em590 red; series mostly up to 46 µM
Activity calls are given as the source filed them. Calls come from the whole dose curve; as a rule, active = well fitted curve in the direction sought with a large enough effect in the repeat runs; inconclusive = weak or mixed curves; inactive = flat fitted curve, though single readings scatter.

MOLECULE | outcome
CCC1OC(=O)C[C@@H](O)[C@H](C)[C@@H](O[C@@H]2O[C@H](C)C[C@H](N(C)C)[C@H]2O)[C@@H](CC=O)C[C@@H](C)C(=O)/C=C/[C@]2(C)OC2C1C (some centres not stated) | inactive
CO[C@H](C(=O)[C@@H](O)[C@@H](C)O)C1Cc2cc3cc(O[C@H]4C[C@@H](O[C@H]5C[C@@H](O)[C@H](O)[C@@H](C)O5)[C@@H](O)[C@@H](C)O4)c(C)c(O)c3c(O)c2C(=O)[C@H]1O[C@H]1C[C@@H](O[C@H]2C[C@@H](O[C@H]3C[C@](C)(O)[C@H](O)[C@@H](C)O3)[C@H](O)[C@@H](C)O2)[C@H](O)[C@@H](C)O1 (some centres not stated) | inactive

====

- MEASUREMENT NOTES: qHTS assay to identify small molecule agonists of the estrogen receptor beta (ER-beta) signaling pathway - cell viability counter screen (AID 1259380); note: nearly all actives have a fitted effect of over 30% in size; note: potency is the fitted concentration of half-maximal effect
- CONDITION PARAMETERS: ER-beta-bla HEK293T viability, CellTiter-Glo luminescence, 16 h; series mostly up to 92.4 µM
Results filed as inconclusive are left out. Calls of active or inactive are those of the source. Calls follow the shape of the dose curve; as a rule, active = well fitted cell-killing curve with a large enough effect in the repeat runs; inconclusive = weak or mixed curves, or effect the other way; inactive = flat fitted curve, though single readings scatter.
REPORTED METRIC: Potency

STRUCTURE AS SMILES | Potency
Clc1cccc(Cl)n1 | inactive
CO[Si](OC)(c1ccccc1)c1ccccc1 | inactive
Cc1cc(Br)ccc1NC(=O)CCl | 30.6 µM (active)
N#CCCOCCC#N | inactive
Cc1ccc2nc(-c3ccc(N)cc3)sc2c1S(=O)(=O)O | inactive

Lookup: GET /values?readout=Potency&item= `COC(=O)c1ccc([N+](=O)[O-])cc1`
Found: inactive

Lookup: Do the same for `CCN(CC)c1ccc(N=Nc2ccccc2)cc1` please
Found: 17.2 µM (active)

Lookup: Do the same for `Cc1ccc2sc3cccc(C)c3c2c1` please
Found: inactive

====

- MEASUREMENT NOTES: qHTS assay to identify small molecule antagonists of the estrogen related receptor (ERR) signaling pathway from Tox21 library - cell viability counter screen (AID 1224834); note: nearly all actives have a fitted effect of over 30% in size
- CONDITION PARAMETERS: ERR reporter cells viability, CellTiter-Fluor, 17.5 h; series mostly up to 92.4 µM
Inconclusive results are not listed. Calls of active or inactive are those of the source. The call rests on the fitted dose curve; in most records, active means well fitted cell-killing curve with a large enough effect in the repeat runs; inconclusive means weak or mixed curves; inactive means flat fitted curve, though single readings scatter.
Respond with a class label; see t for active, f for inactive

Solved cases below.
COMPOUND | CATEGORY
CCc1cccc(C)c1N(C(=O)C(=O)O)C(C)COC (configuration not stated) | f
CCCC(C)C=O (configuration not stated) | f
Cc1ccc2sc3cccc(C)c3c2c1 | f

Lookup: What classification did `CN1CCN(c2ccccc2/C=C2\SCCN(c3ccc(Cl)c(Cl)c3)C2=O)CC1` end up with in this test?
Found: t

Lookup: Do the same for `CSc1nnc(C(C)(C)C)c(=O)[nH]1` please
Found: f

Lookup: Do the same for `O=C1OC(=O)c2cc(-c3ccc4c(c3)C(=O)OC4=O)ccc21` please
Found: f

Lookup: Do the same for `CN1CCN(CCCN2c3ccccc3Sc3ccc(C(F)(F)F)cc32)CC1` please
Found: t

Lookup: Do the same for `N#Cc1ccc(C/C(=N/NC(=O)Nc2ccc(OC(F)(F)F)cc2)c2cccc(C(F)(F)F)c2)cc1` please
Found: f

Lookup: Do the same for `CCOC(=O)[C@H](O)[C@@H](O)C(=O)OCC` please
Found: f

Lookup: Do the same for `Cc1cc(F)ccc1-c1cc(N2CC[C@@H](O)[C@H]2CO)ncc1N(C)C(=O)C(C)(C)c1cc(C(F)(F)F)cc(C(F)(F)F)c1` please
Found: t

Lookup: Do the same for `c1ccc2occc2c1` please
Found: f

Lookup: Do the same for `CC(C)=NNC(N)=S` please
Found: f

====

- MEASUREMENT NOTES: qHTS assay for small molecule agonists of the p53 signaling pathway (AID 651631); note: nearly all actives have a fitted effect of over 15% in size; note: potency is the fitted concentration of half-maximal effect
- CONDITION PARAMETERS: HCT-116 p53RE-bla reporter, beta-lactamase FRET ratio, 16 h; series mostly up to 73.3 µM
- Description: U.S. Tox21 Program National Center for Advancing Translational Sciences [NCATS] NIH Chemical Genomics Center [NCGC] U.S. Environmental Protection Agency [EPA] National Institutes of Environmental Health Sciences [NIEHS] National Toxicology Program [NTP] U.S. Food and Drug Administration [FDA] […] The activation of the reporter gene under culture conditions can be detected by fluorescence intensity. […]
Results filed as inconclusive are left out. Activity calls are given as the source filed them. The call rests on the fitted dose curve.
REPORTED METRIC: Potency

Record excerpt, results attached:
COMPOUND | Potency
COC1=C(OC)C(=O)C(C/C=C(\C)CC/C=C(\C)CC/C=C(\C)CC/C=C(\C)CC/C=C(\C)CC/C=C(\C)CC/C=C(\C)CC/C=C(\C)CC/C=C(\C)CCC=C(C)C)=C(C)C1=O | inactive
OCl | inactive
CCC(=O)OC(OP(=O)(CCCCc1ccccc1)CC(=O)N1C[C@H](C2CCCCC2)C[C@H]1C(=O)O)C(C)C (some centres undefined) | inactive
NC(=O)[C@@H]1C[C@]2(NC(=O)NC2=O)c2cc(F)ccc2O1 | inactive
NC(=S)NS(=O)(=O)c1ccc(N)cc1 | inactive

Lookup: GET /values?readout=Potency&item= `O=C(O)C[C@H](O)C[C@H](O)/C=C/c1c(C2CC2)nc2ccccc2c1-c1ccc(F)cc1`
Found: inactive

Lookup: Do the same for `CCCCCCCCCCCC[n+]1ccc2ccccc2c1` please
Found: 26.6 µM (active)

Lookup: Do the same for `N[C@@H](Cc1cnc[nH]1)C(=O)O` please
Found: inactive

====

- MEASURED ON: Aryl hydrocarbon receptor (Homo sapiens)
- MEASUREMENT NOTES: qHTS assay to identify small molecule that activate the aryl hydrocarbon receptor (AhR) signaling pathway (AID 743085); note: nearly all actives have a fitted effect of over 15% in size;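 for activation: HG2L7.5c1 human HepG2 liver cells with stably integrated DRE-driven firefly reporter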
- CONDITION PARAMETERS: HepG2 AhR-luc (HG2L7.5c1), luciferase, 24 h; series mostly up to 70.3 µM
Records with an inconclusive call do not appear. Calls of active or inactive are those of the source. Calls come from the whole dose curve; as a rule, active = well fitted activation curve with a large enough effect in the repeat runs; inconclusive = weak or mixed curves; inactive = no such curve, though single readings can be large or run the other way.
Respond with a class label; see y for active, n for inactive

Solved cases below.
MOLECULE | CATEGORY
Cc1ccc2nc(-c3ccc(N)cc3)sc2c1S(=O)(=O)O | y
CN[C@H](CC(C)C)C(=O)N[C@H]1C(=O)N[C@@H](CC(N)=O)C(=O)N[C@H]2C(=O)N[C@H]3C(=O)N[C@H](C(=O)N[C@@H](C(=O)O)c4cc(O)cc(O)c4-c4cc3ccc4O)[C@H](O)c3ccc(c(Cl)c3)Oc3cc2cc(c3O[C@@H]2O[C@H](CO)[C@@H](O)[C@H](O)[C@H]2O[C@H]2C[C@](C)(N)C(O)[C@H](C)O2)Oc2ccc(cc2Cl)[C@H]1O (stereo not given in full) | n
COc1ccc([C@@H]2CC(=O)c3c(O)cc(O[C@@H]4O[C@H](CO[C@@H]5O[C@@H](C)[C@H](O)[C@@H](O)[C@H]5O)[C@@H](O)[C@H](O)[C@H]4O)cc3O2)cc1O | n
C=C(Nc1ccc(OCC)cc1)Nc1ccc(OCC)cc1 | n
CCOc1cc(CC(=O)N[C@@H](CC(C)C)c2ccccc2N2CCCCC2)ccc1C(=O)O | n
Cc1c(O)c(=O)ccn1C | n

Lookup: What classification did CC1CCCCN1CCCOC(=O)c1ccccc1 (stereo not given) end up with in this test?
Found: n

Lookup: Do the same for C=CCN1C(=O)C(CC(C)C)NC1=S (stereo not given) please
Found: n

Lookup: Do the same for `CO/N=C(\C(=O)N[C@@H]1C(=O)N2C(C(=O)O)=C(C[N+]3(C)CCCC3)CS[C@H]12)c1csc(N)n1` please
Found: n

Lookup: Do the same for `CN[C@@H]1[C@@H](O[C@H]2O[C@H](CO)[C@@H](N)[C@H](O)[C@H]2O)O[C@H]2C[C@@H](N)[C@@H](O[C@H]3[C@H](O)[C@@H](O)[C@H](N)C[C@@H]3N)O[C@@H]2[C@@H]1O` please
Found: n

Lookup: Do the same for `NC(=O)C1c2ccccc2CCc2ccccc21` please
Found: n

Lookup: Do the same for NCC(O)CC(=O)O (stereo not given) please
Found: n

Lookup: Do the same for `CC(C)C[C@@H](NC(=O)[C@@H](O)[C@H](N)Cc1ccccc1)C(=O)O` please
Found: n

Lookup: Do the same for `COC(=O)[C@H]1[C@H]2C[C@H]3c4[nH]c5ccccc5c4CCN3C[C@H]2CC[C@@H]1O` please
Found: y

Lookup: Do the same for `NCCO/C=C/[C@H](N)C(=O)O` please
Found: n

Lookup: Do the same for CC[C@@]1([C@@H]2O[C@@H]([C@H]3O[C@@](O)(CO)[C@H](C)C[C@@H]3C)C[C@@H]2C)CC[C@H]([C@]2(C)CC[C@]3(C[C@H](O)[C@@H](C)[C@@H]([C@@H](C)[C@@H](OC)[C@H](C)C(=O)O)O3)O2)O1 (stereo in doubt) please
Found: n

Lookup: Do the same for NCC1CCC(C(=O)O)CC1 (stereo not given) please
Found: n

Lookup: Do the same for `O=C1c2ccccc2-c2n[nH]c3cccc1c23` please
Found: y
